study target: T1, transforming growth factor-beta 1 (TGF-β1) (UniProt P01137 279-390)
T1 construct: also called TGFb1; TGFB1
T1 sequence (P01137 279-390 limits assumed): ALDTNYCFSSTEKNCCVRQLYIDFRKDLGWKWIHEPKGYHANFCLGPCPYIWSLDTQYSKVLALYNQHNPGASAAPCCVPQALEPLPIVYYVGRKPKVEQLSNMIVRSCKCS
protocol notes: ELISA, peptide on streptavidin plate, ligand 100 ng/ml
Ends that are not written are not given here.
measured endpoint: ELISA OD450
Just the number plus its unit, please.

LWRWQLYAAQSTKSPWNFLGG (also: biotinylated, site not given here) [CLPTM1 peptide fragment of SEQ ID NO: 26] yielded ELISA OD450 of 0.013 OD450

NAWQVIKGVLFRIFIIWAISSWFRRGPAPQDQAGPGGA (also: biotinylated, site not given here, also called peptide 28; GT4) [CLPTM1 peptide fragment of SEQ ID NO: 35] yielded ELISA OD450 of 0.098 OD450

PLRVSFCPLSLWRWQLYAAQG (also: biotinylated, site not given here) [CLPTM1 peptide fragment of SEQ ID NO: 23] yielded ELISA OD450 of 0.083 OD450

YEQSDEEQDSVKVALLETNPG (also: biotinylated, site not given here) [CLPTM1 peptide fragment of SEQ ID NO: 25] yielded ELISA OD450 of 0.01 OD450

LWRWQLYAAQSTKSPWNFLGDELYEQSDEEQDSVKVALLETNP (also: biotinylated, site not given here, also called peptide 26; GT2) [CLPTM1 peptide fragment of SEQ ID NO: 33] yielded ELISA OD450 of 0.177 OD450

NDYWNLQKDYYPINESLASLG (also: biotinylated, site not given here) [CLPTM1 peptide fragment of SEQ ID NO: 22] yielded ELISA OD450 of 0.017 OD450

LMNLHVYISEHEHFTDFNATG (also: biotinylated, site not given here) [CLPTM1 peptide fragment of SEQ ID NO: 13] yielded ELISA OD450 of 0.02 OD450
